# credit: patent US12622945B2

target: integrin αvβ3 (Homo sapiens, UniProt P05106+P06756); construct: purchased R&D Systems; assay: Competition ELISA with biotinylated RGD-Knottin, integrin αvβ3; assay type: binding; settings: read-out: binding affinity (IC50) of the peptide and integrin αvβ3
Where no end group is shown, it is not given here.
property-measured: IC50

Field IC50 (entry GFQDSLDSNRQDPGTDPEKGIDF-NH2 [SEQ ID No: 15] ) reads > 3.94 mM
